# Tested on: PPARg:RXRa 30nM:10nM, anti-RXR (NR concentration 30 nM, RXRa partner concentration 10 nM)
# protocolNotes: PBM binding z-score (relative to random genomic background probes); higher = stronger binding; sequences stand for … in GC…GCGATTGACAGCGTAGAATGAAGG
endpoint: PBM binding z-score
Answers are plain numbers.

sequence	PBM binding z-score
GCTAGTTGGTCAGTAAAAGATCACACACCGGTCG	-0.233
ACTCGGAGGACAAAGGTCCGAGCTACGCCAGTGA	0.616
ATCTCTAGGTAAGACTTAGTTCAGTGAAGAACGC	0.399

For every item in the list below, what is its measured PBM binding z-score?
1. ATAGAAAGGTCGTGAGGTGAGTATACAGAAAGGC
2. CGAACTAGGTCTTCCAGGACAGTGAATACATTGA
3. AATACAGGGTCACTAGGCCAAAGTAGGTACGAAT
4. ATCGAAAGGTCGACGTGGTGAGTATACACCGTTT
5. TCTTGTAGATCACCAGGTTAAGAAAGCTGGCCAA
6. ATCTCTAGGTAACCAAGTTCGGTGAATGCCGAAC

Response given:
2.46
-0.0415
4.18
1.01
3.04
0.0695

For every item in the list below, what is its measured PBM binding z-score?
1. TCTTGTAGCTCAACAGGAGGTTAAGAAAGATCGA
2. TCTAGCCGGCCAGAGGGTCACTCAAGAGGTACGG
3. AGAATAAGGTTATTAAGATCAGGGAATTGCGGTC
4. TCAGACAGGTAAAGGTAACTCAGGTACGCAGTCG

Response given:
1: 2.01; 2: 1.39; 3: 0.45; 4: 4.03

For every item in the list below, what is its measured PBM binding z-score?
1. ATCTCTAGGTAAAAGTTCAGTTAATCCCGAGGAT
2. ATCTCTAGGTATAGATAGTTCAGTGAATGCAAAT
3. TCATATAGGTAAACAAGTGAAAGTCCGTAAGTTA

Response given:
8.17
0.345
4.08

For every item in the list below, what is its measured PBM binding z-score?
1. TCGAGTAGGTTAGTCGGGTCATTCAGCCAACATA
2. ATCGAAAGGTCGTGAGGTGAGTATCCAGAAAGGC
3. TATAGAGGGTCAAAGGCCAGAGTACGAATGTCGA
4. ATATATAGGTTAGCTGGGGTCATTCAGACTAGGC
5. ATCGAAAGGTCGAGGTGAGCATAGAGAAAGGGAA
6. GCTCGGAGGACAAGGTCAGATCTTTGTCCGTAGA
7. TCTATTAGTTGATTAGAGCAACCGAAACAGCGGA

Response given:
1: 1.36; 2: 1.14; 3: 5.22; 4: 2.62; 5: 1.66; 6: -0.124; 7: 3.21

For every item in the list below, what is its measured PBM binding z-score?
1. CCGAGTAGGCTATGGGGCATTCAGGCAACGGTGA
2. CCGAGTAGGATATGGGGCATTCAGGCAACGGTGA
3. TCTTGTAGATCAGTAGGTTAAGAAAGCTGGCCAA
4. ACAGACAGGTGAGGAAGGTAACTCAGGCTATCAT
5. TCTGCTAGGTCAACGATGGTCAGCTTATCTGCTA
6. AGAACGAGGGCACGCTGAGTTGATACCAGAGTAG

Response given:
0.549
0.579
2.94
0.0158
2.06
0.433

For every item in the list below, what is its measured PBM binding z-score?
1. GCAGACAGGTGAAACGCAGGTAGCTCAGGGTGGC
2. ATCCCTAGGTAACCAAGTTCAGTGAATGCCGAAC
3. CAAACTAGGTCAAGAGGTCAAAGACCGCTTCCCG

Response given:
1. -0.645
2. -0.161
3. 7.38

For every item in the list below, what is its measured PBM binding z-score?
1. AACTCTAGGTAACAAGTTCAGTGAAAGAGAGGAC
2. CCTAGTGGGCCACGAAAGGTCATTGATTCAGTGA
3. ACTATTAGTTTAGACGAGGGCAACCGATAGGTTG
4. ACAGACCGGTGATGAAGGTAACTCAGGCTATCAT
5. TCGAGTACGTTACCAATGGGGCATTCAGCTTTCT
6. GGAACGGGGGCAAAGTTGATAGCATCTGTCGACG
7. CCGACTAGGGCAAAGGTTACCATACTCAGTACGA
8. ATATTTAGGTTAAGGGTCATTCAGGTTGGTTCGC

Response given:
0.492
2.04
-0.0368
-0.0977
1.32
9.53
9.02
9.42

For every item in the list below, what is its measured PBM binding z-score?
1. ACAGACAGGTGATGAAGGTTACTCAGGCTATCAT
2. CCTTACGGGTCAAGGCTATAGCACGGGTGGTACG
3. AGAATGAGGTTTAGATCAGGGAAACAGAATACAT
4. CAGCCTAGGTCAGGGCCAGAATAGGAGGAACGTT
5. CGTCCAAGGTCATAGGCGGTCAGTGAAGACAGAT
6. TCAGATAGGTAAAAGGTGAAAGTCGGTGTGGTAA

Response given:
[0.107, 1.45, 0.223, -0.241, 1.82, 6.55]
